Assay: AUC in Beagle dog at 10 mg/kg, po
Type: ADME, organism-based, Canis lupus familiaris
Conditions: in vivo
outcome-measure: AUC (µM·h)
Give the value, in units of µM·h, as a plain number.

Input: So what's the measured AUC for this one? CC(F)(F)c1cc(F)ccc1-c1sc2cc(O)ccc2c1Oc1ccc(/C=C/C(=O)O)cc1 [LSZ-102]
Output: 9.62

====

Target: Estrogen receptor (Homo sapiens)
Sequence (P03372 whole entry): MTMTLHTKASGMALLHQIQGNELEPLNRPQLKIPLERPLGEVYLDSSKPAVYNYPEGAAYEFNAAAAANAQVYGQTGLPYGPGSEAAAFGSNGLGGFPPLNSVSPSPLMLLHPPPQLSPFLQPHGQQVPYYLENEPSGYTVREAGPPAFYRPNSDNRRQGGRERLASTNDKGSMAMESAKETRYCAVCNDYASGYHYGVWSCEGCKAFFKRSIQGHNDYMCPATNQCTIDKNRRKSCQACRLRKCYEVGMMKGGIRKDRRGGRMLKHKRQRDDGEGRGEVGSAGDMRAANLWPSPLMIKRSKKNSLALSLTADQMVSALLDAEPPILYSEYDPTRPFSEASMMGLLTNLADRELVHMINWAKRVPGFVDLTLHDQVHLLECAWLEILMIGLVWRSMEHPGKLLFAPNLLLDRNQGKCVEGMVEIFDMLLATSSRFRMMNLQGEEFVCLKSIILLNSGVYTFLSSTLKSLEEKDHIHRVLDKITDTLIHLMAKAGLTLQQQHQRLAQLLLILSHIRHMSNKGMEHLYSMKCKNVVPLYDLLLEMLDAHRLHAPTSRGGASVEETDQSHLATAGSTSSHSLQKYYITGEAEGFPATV
Test: Induction of selective estrogen receptor alpha degradation in human MCF7 cells harboring TK-ERE-Luc assessed as reduction in estradiol-induced transcriptional activity after 24 hrs by luciferase reporter gene assay
Type: cell-based
outcome-measure: pIC50
Convention used: pIC50 is expressed as -log10 of the molar concentration.

Input: So what's the measured pIC50 for this one? O=C(O)/C=C/c1ccc(Oc2c(-c3ccc(F)cc3)sc3cc(O)ccc23)cc1
Output: 5.74

Input: So what's the measured pIC50 for this one? Oc1ccc(-c2sc3cc(O)ccc3c2Oc2ccc(/C=C/c3nnn[nH]3)cc2)cc1
Output: 6.66

====

Assay: Elimination half life in Sprague-Dawley rat at 1 mg/kg, iv or 3 mg/kg, po
Assay type: ADME, organism-based
Conditions: in vivo, read-out: beta t1/2 (converted)
outcome-measure: half-life (h)
Give the value, in units of h, as a plain number.

Input: So what's the measured half-life for this one? CC(F)(F)c1cc(F)ccc1-c1sc2cc(O)ccc2c1Oc1ccc(/C=C/C(=O)O)cc1
Output: 1.4

====

Assay: Volume of distribution at steady state in Beagle dog at 0.3 mg/kg, iv or 10 mg/kg, po
Type: ADME, organism-based, Canis lupus familiaris
Details: in vivo, read-out: Vdss
outcome-measure: Vd (L/kg)
Give the value, in units of L/kg, as a plain number.

Input: So what's the measured Vd for this one? CC(F)(F)c1cc(F)ccc1-c1sc2cc(O)ccc2c1Oc1ccc(/C=C/C(=O)O)cc1
Output: 0.3

====

Assay: Elimination half life in Beagle dog at 0.3 mg/kg, iv or 10 mg/kg, po
Assay type: ADME, organism-based, Canis lupus familiaris
Details: in vivo, read-out: beta t1/2 (converted)
outcome-measure: half-life
Don't forget the unit after the number, please.

Input: So what's the measured half-life for this one? CC(F)(F)c1cc(F)ccc1-c1sc2cc(O)ccc2c1Oc1ccc(/C=C/C(=O)O)cc1
Output: 246 min

====

Assay: Cmax in Sprague-Dawley rat at 3 mg/kg, po
Format: ADME, organism-based
Set-up: dose 3 mg/kg, route oral
Details: in vivo
Give Cmax for every item shown.
Give the value, in units of nM, as a plain number.

Input: So what's the measured Cmax for this one? O=C(O)/C=C/c1ccc(Oc2c(-c3ccc(O)cc3)sc3cc(O)ccc23)cc1
Output: 80

Input: So what's the measured Cmax for this one? O=C(O)/C=C/c1ccc(Oc2c(-c3ccc(C(F)(F)F)cc3)sc3cc(O)ccc23)cc1
Output: 985

Input: So what's the measured Cmax for this one? O=C(O)/C=C/c1ccc(Oc2c(-c3ccc(F)cc3)sc3cc(O)ccc23)cc1
Output: 847

====

Experiment: Volume of distribution at steady state in Sprague-Dawley rat at 1 mg/kg, iv or 3 mg/kg, po
Format: ADME, organism-based
Details: in vivo, read-out: Vdss
outcome-measure: Vd (L/kg)
Give the value, in units of L/kg, as a plain number.

Input: So what's the measured Vd for this one? CC(F)(F)c1cc(F)ccc1-c1sc2cc(O)ccc2c1Oc1ccc(/C=C/C(=O)O)cc1
Output: 0.9

====

Experiment: Clearance in Sprague-Dawley rat at 1 mg/kg, iv or 3 mg/kg, po
Type: ADME, organism-based
Conditions: in vivo
outcome-measure: clearance

Input: So what's the measured clearance for this one? CC(F)(F)c1cc(F)ccc1-c1sc2cc(O)ccc2c1Oc1ccc(/C=C/C(=O)O)cc1
Output: 1.14 L/h/kg

Input: So what's the measured clearance for this one? O=C(O)/C=C/c1ccc(Oc2c(-c3ccc(C(F)(F)F)cc3)sc3cc(O)ccc23)cc1
Output: 1.8 L/h/kg

Input: So what's the measured clearance for this one? O=C(O)/C=C/c1ccc(Oc2c(-c3ccc(F)cc3)sc3cc(O)ccc23)cc1
Output: 1.44 L/h/kg

Input: So what's the measured clearance for this one? O=C(O)/C=C/c1ccc(Oc2c(-c3ccc(O)cc3)sc3cc(O)ccc23)cc1
Output: 3.24 L/h/kg

====

Assay: Oral bioavailability in C57BL/6 mouse at 3 mg/kg
Type: ADME, organism-based
Settings: in vivo
Binary classification by bioavailability, with 5% as an inclusive lower bound for True; all other cases are False.

Input: Test whether the molecule Cc1cc(-c2sc3cc(O)ccc3c2Oc2ccc(/C=C/C(=O)O)cc2)ccc1O records bioavailability of 5% or higher.
Output: False

Input: Test whether the molecule O=C(O)/C=C/c1ccc(Oc2c(-c3ccc(F)cc3)sc3cc(O)ccc23)cc1 records bioavailability of 5% or higher.
Output: True

Input: Test whether the molecule CC(C)c1ccccc1-c1sc2cc(O)ccc2c1Oc1ccc(/C=C/C(=O)O)cc1 records bioavailability of 5% or higher.
Output: True

Input: Test whether the molecule Cc1cc(F)ccc1-c1sc2cc(O)ccc2c1Oc1ccc(/C=C/C(=O)O)cc1 records bioavailability of 5% or higher.
Output: True

====

Give clearance for every item shown.
Assay: Clearance in C57BL/6 mouse at 1 mg/kg, iv or 3 mg/kg, po
Type: ADME, organism-based
Settings: in vivo
Give the value, in units of mL/min/kg, as a plain number.

Input: So what's the measured clearance for this one? O=C(O)/C=C/c1ccc(Oc2c(-c3ccc(F)cc3C(F)(F)F)sc3cc(O)ccc23)cc1
Output: 18

Input: So what's the measured clearance for this one? CC(C)c1ccccc1-c1sc2cc(O)ccc2c1Oc1ccc(/C=C/C(=O)O)cc1
Output: 15

Input: So what's the measured clearance for this one? Cc1cc(-c2sc3cc(O)ccc3c2Oc2ccc(/C=C/C(=O)O)cc2)ccc1O
Output: 46

====

Test: Equilibrium solubility in pH 6.8 buffer at 1 mM after 16 hrs by HPLC based shake flask method
Format: physicochemical
outcome-measure: solubility thermodynamic at 16 h, 1000 µM

Input: So what's the measured solubility thermodynamic at 16 h, 1000 µM for this one? NC(=O)/C=C/c1ccc(Oc2c(-c3ccc(O)cc3)sc3cc(O)ccc23)cc1
Output: < 5 µM

Input: So what's the measured solubility thermodynamic at 16 h, 1000 µM for this one? Oc1ccc(-c2sc3cc(O)ccc3c2Oc2ccc(/C=C/c3c[nH]cn3)cc2)cc1
Output: < 5 µM

Input: So what's the measured solubility thermodynamic at 16 h, 1000 µM for this one? CNC(=O)/C=C/c1ccc(Oc2c(-c3ccc(O)cc3)sc3cc(O)ccc23)cc1
Output: < 5 µM

Input: So what's the measured solubility thermodynamic at 16 h, 1000 µM for this one? O=C(/C=C/c1ccc(Oc2c(-c3ccc(O)cc3)sc3cc(O)ccc23)cc1)NCCC(F)(F)F
Output: < 5 µM

Input: So what's the measured solubility thermodynamic at 16 h, 1000 µM for this one? O=C(O)CCc1ccc(Oc2c(-c3ccc(O)cc3)sc3cc(O)ccc23)cc1
Output: > 1000 µM
